Where do these numbers come from? They come from ChEMBL document CHEMBL1649176.

Test system: Escherichia coli
Experiment: Antimicrobial activity against sodA, sodB gene-deficient Escherichia coli K-12 3156 by broth dilution method
Type: functional
measuredEndpoint: MIC (µg/mL)
Give bare numbers, in µg/mL.

Examples from the recorded data:
smilesnotation=CCn1cc(C(=O)O)c(=O)c2cc(F)c(N3CCNCC3)cc21 observedmeasurement=0.04
smilesnotation=NC[C@H]1O[C@H](O[C@H]2[C@H](O)[C@@H](O[C@H]3O[C@H](CO)[C@@H](O)[C@H](N)[C@H]3O)[C@H](N)C[C@@H]2N)[C@H](O)[C@@H](O)[C@@H]1O observedmeasurement=0.6

Here is another compound to look at.
Q) Determine from records and report MIC for CC1(C)S[C@@H]2[C@H](NC(=O)[C@H](N)c3ccccc3)C(=O)N2[C@H]1C(=O)O
A) 15
